For each record, write down the corresponding half-life at 3 µM.
# Assay Info: Microsomal stability assay, HLM
# Assay type: in vitro ADME
# Measurement Context: pooled human liver microsomes, pH 7.4; 3 μM compound, 0.5 mg/ml human liver microsomes, 37° C., 2 mM NADPH; read-out: HLM t1/2

Some compounds with recorded half-life at 3 µM:
OCCNc1nnc(-c2ccncc2Nc2ccc(Br)cc2F)o1 ... > 2 h
C=CCNc1nnc(-c2ccncc2Nc2ccc(Br)cc2C)o1 ... > 2 h
Cc1cc(I)ccc1Nc1cnccc1C(=O)NS(C)(=O)=O ... 0.517 to 2 h
Cc1cc(I)ccc1Nc1cnccc1C(=O)NOC[C@H](O)CO ... > 2 h
CCONC(=O)c1ccncc1Nc1ccc(Br)cc1C ... 0.517 to 2 h

// next item, half-life at 3 µM requested
Req: half-life at 3 µM for CNCCNc1nnc(-c2ccncc2Nc2ccc(Br)cc2F)o1 ?
Resp: > 2 h

// provenance: patent US8524911B2
